- Target: β-lactamase (cephalosporinase, E. coli GN-5482) (Escherichia coli)
- Construct: producing bacteria; endogenous in cells
- Sequence (P00811 20-377): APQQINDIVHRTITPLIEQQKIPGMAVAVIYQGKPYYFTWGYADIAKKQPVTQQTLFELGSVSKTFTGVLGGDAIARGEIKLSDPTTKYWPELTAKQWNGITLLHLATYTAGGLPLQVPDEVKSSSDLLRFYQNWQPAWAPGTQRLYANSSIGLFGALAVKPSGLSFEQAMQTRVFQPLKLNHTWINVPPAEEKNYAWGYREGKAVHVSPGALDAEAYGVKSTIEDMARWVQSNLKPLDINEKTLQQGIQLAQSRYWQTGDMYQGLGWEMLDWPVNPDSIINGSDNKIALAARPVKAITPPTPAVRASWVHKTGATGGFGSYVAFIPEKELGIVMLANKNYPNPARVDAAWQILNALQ
- Assay Summary: Inhibitory dose to β-lactamase, iodometric method of Perret, Cefazolin as substrate
Observed Property: IC50 (nM)
// units = nM; emit number, no label

Please provide the recorded IC50 for CCN1CCN(C(=O)NC(C(=O)N[C@]2(OC)C(=O)N3C(C(=O)O)=C(CSc4nnnn4C)CS[C@@H]32)c2cccs2)C(=O)C1=O (stereo partly shown) , tested on β-lactamase (cephalosporinase, E. coli GN-5482) (Escherichia coli).
1230

###

Provide the reported MIC of each item.
- Test system: Ps. aeruginosa IFO-3445
- Assay Summary: Minimum inhibitory concentration (MIC), Heart Infusion agar
- Format: cell-based
- Condition Set: Pseudomonas aeruginosa, IFO3445; Ps. aeruginosa IFO-3445; 10^6 cells/ml; 20 hours, 37° C.; read-out: minimum inhibitory concentration (MIC)
// units = µg/mL; emit number, no label

Recorded MIC of CCN1CCN(C(=O)NC(C(=O)N[C@]2(OC)C(=O)N3C(C(=O)O)=C(CSc4nnnn4CC(N)=O)CS[C@@H]32)c2csc(N)n2)C(=O)C1=O (stereo partly drawn) , please.
12.5

Recorded MIC of CCN1CCN(C(=O)NC(C(=O)N[C@]2(OC)C(=O)N3C(C(=O)O)=C(CSc4nnnn4CC(N)=O)CS[C@@H]32)c2cccs2)C(=O)C1=O (stereo partly drawn) , please.
12.5

Recorded MIC of C=Cn1nnnc1SCC1=C(C(=O)O)N2C(=O)[C@](NC(=O)C(NC(=O)N3CCN(CC)C(=O)C3=O)c3ccco3)(OC)[C@H]2SC1 (stereo partly drawn) , please.
25

Recorded MIC of CCN1CCN(C(=O)N[C@@H](C(=O)N[C@]2(OC)C(=O)N3C(C(=O)O)=C(COC(C)=O)CS[C@@H]32)c2cccs2)C(=O)C1=O [OCOCH3] , please.
50

Recorded MIC of CCN1CCN(C(=O)NC(C(=O)N[C@]2(OC)C(=O)N3C(C(=O)O)=C(CSc4nnnn4CCO)CS[C@@H]32)c2cccs2)C(=O)C1=O (stereo partly drawn) , please.
12.5

Recorded MIC of C=Cn1nnnc1SCC1=C(C(=O)O)N2C(=O)[C@](NC(=O)C(NC(=O)N3CCN(CC)C(=O)C3=O)c3cccs3)(OC)[C@H]2SC1 (stereo partly drawn) , please.
25

###

- System: Penicillinase (E. coli TK-3)
- Assay Summary: Stability to β-lactamase, iodometry (Perret)
- Format: biochemical
- Condition Set: E. coli TK-3 penicillinase; PCG = 100; 30° C., pH 7.0
Provide the reported Stability to β-lactamase, relative degree of hydrolysis of each item.

Recorded Stability to β-lactamase, relative degree of hydrolysis of CC1(C)S[C@@H]2[C@H](NC(=O)Cc3ccccc3)C(=O)N2[C@H]1C(=O)O , please.
100

Recorded Stability to β-lactamase, relative degree of hydrolysis of Cc1nnc(SCC2=C(C(=O)O)N3C(=O)[C@@H](NC(=O)Cn4cnnn4)[C@H]3SC2)s1 , please.
21

Recorded Stability to β-lactamase, relative degree of hydrolysis of O=C(Cc1cccs1)N[C@@H]1C(=O)N2C(C(=O)[O-])=C(C[n+]3ccccc3)CS[C@H]12 , please.
115

Recorded Stability to β-lactamase, relative degree of hydrolysis of CCN1CCN(C(=O)NC(C(=O)N[C@]2(OC)C(=O)N3C(C(=O)O)=C(CSc4nnnn4C)CS[C@@H]32)c2cccs2)C(=O)C1=O (stereo partly shown) , please.
< 0.003
